biological target: UniProt Q9JI35
Readout: Ki

Problem: # returns recorded Ki (system: UniProt Q9JI35) for O=S(=O)(NCCCCc1c[nH]cn1)NCc1ccc(C(F)(F)F)cc1
Solution: 2.63 nM

* * *

target: Histamine H3 receptor (Cavia porcellus) (UniProt Q9JI35); test: Inhibition of neurogenic contractions in guinea pig ileum mediated by histamine H3 receptors; format: functional, tissue-based
Readout: pKB
When you answer, write just the number.

>>> val("COc1ccc(CNS(=O)(=O)NCCCCc2c[nH]cn2)cc1")
7.06

Problem: # returns recorded pKB (system: Histamine H3 receptor (Cavia porcellus) (UniProt Q9JI35)) for O=S(=O)(NCCCCCCc1c[nH]cn1)NCc1ccc(Cl)cc1
Solution: 8.77

Problem: Would you kindly repeat that for O=S(=O)(NCCCc1c[nH]cn1)NCc1ccc(Cl)cc1 ?
Solution: 7.04

Problem: Would you kindly repeat that for O=S(=O)(NCCCCc1c[nH]cn1)NCc1ccc(Br)cc1 ?
Solution: 8.91

Problem: Would you kindly repeat that for O=S(=O)(Cc1ccc(C(F)(F)F)cc1)NCCCCc1c[nH]cn1 ?
Solution: 7.89

Problem: Would you kindly repeat that for O=S(=O)(NCCCCCCCc1c[nH]cn1)NCc1ccc(Cl)cc1 ?
Solution: 8.37

Problem: Would you kindly repeat that for O=S(=O)(NCCCCc1c[nH]cn1)NCc1ccc(C(F)(F)F)cc1 ?
Solution: 8.48

Problem: Would you kindly repeat that for O=S(=O)(NCCCCc1c[nH]cn1)NCc1ccc(-c2ccccc2)cc1 ?
Solution: 8.32

Problem: Would you kindly repeat that for O=S(=O)(Cc1ccc(Cl)cc1)NCCCCc1c[nH]cn1 ?
Solution: 8.62

Problem: Would you kindly repeat that for O=S(=O)(Cc1ccc(Cl)cc1)NCCCCCCCc1c[nH]cn1 ?
Solution: 7.36

Problem: Would you kindly repeat that for O=S(=O)(Cc1ccc(-c2ccccc2)cc1)NCCCCc1c[nH]cn1 ?
Solution: 8.1

Problem: Would you kindly repeat that for O=S(=O)(Cc1ccc(Cl)cc1)NCCCCCc1c[nH]cn1 ?
Solution: 7.33

* * *

Let's look at some compounds and their measured pKB.
biological target: UniProtKB Q9JI35; test: Inhibition of neurogenic contractions in guinea pig ileum mediated by histamine H3 receptors; format: functional, tissue-based

Record excerpt, results attached:
>>> val("O=S(=O)(NCCCCc1c[nH]cn1)NCc1ccc(F)cc1")
7.7
>>> val("O=S(=O)(Cc1ccc(Cl)cc1)NCCCCCCCCCCc1c[nH]cn1")
"< 5"

Problem: Entry O=S(=O)(NCCCCc1c[nH]cn1)NCc1ccc(I)cc1 has what pKB?
Solution: 8.49

* * *

biological target: Histamine H3 receptor (Cavia porcellus) (UniProt Q9JI35); assay: Inhibition of neurogenic contractions in guinea pig ileum mediated by histamine H3 receptors; assay type: functional, tissue-based
Let's look at some molecules and their measured pKB.
When you answer, write just the number.

Record excerpt, results attached:
>>> val("O=S(=O)(Cc1ccc(F)cc1)NCCCCc1c[nH]cn1")
7.32
>>> val("O=S(=O)(NCCCCCCCCc1c[nH]cn1)NCc1ccc(Cl)cc1")
7.37
>>> val("O=S(=O)(NCCCCc1c[nH]cn1)NCc1ccccc1")
7.01
>>> val("O=S(=O)(NCCCCc1c[nH]cn1)NCc1ccc(Cl)cc1")
8.68
>>> val("O=S(=O)(NCCCCc1c[nH]cn1)NCc1cccc(Cl)c1")
7.86

Problem: Entry O=S(=O)(NCCCCc1c[nH]cn1)NCc1ccccc1Cl has what pKB?
Solution: 6.42

Problem: Would you kindly repeat that for O=S(=O)(Cc1ccc(Br)cc1)NCCCCc1c[nH]cn1 ?
Solution: 7.68

Problem: Would you kindly repeat that for O=S(=O)(Cc1ccc(Cl)cc1)NCCCCCCc1c[nH]cn1 ?
Solution: 8.01

* * *

Let's look at some compounds and their measured pKB.
target: Histamine H3 receptor (Cavia porcellus); experiment: Inhibition of neurogenic contractions in guinea pig ileum mediated by histamine H3 receptors; assay type: functional, tissue-based
Sequence (Q9JI35 whole entry): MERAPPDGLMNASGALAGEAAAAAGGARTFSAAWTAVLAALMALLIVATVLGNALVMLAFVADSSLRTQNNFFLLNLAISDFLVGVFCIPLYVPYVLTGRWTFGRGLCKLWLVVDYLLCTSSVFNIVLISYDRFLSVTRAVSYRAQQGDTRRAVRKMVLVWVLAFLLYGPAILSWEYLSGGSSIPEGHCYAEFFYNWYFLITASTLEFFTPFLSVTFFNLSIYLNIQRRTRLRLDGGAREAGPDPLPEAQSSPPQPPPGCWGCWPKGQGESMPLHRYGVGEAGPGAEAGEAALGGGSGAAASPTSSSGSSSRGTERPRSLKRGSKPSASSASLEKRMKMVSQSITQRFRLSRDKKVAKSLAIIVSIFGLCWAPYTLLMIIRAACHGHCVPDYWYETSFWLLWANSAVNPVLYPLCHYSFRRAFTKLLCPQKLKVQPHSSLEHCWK

>>> val("O=S(=O)(NCCCCCCCCCCc1c[nH]cn1)NCc1ccc(Cl)cc1")
"< 5"
>>> val("O=S(=O)(NCCCCCc1c[nH]cn1)NCc1ccc(Cl)cc1")
8.2
>>> val("O=S(=O)(Cc1ccc(Cl)cc1)NCCCCCCCCc1c[nH]cn1")
6.64

Now, please, on to the next compound.
Problem: Entry O=S(=O)(Cc1ccc(Cl)cc1)NCCCc1c[nH]cn1 has what pKB?
Solution: 6.29
